- SUBJECT_OF_TEST: UniProtKB P04585
- EXPERIMENT_SUMMARY: biochemical
- CONDITION_CONTEXT: read-out: HIV-1 Protease % Inhib, dose 1.000 uM
Parameter inhibition at 1 µM: see the listing below.

The cases that follow already have their inhibition at 1 µM on record.
O=c1oc2ccccc2c(O)c1C(C1CC1)C1CC1 [Example 104]; 12.2%
CCC(c1ccccc1)c1c(O)c2ccc(OCCOCCOCCOC)cc2oc1=O (stereo not drawn) [Example 154]; 13.6%
O=c1oc2ccccc2c(O)c1CC(c1ccccc1)c1ccccc1 [Example 4, 4-Hydroxy-3-(2,2-diphenylethyl)-coumarin]; < 10%
CCC(c1cccc(NC(=O)CCc2c[nH]c3ccccc23)c1)c1c(O)c2ccccc2oc1=O (stereo not drawn) [Example 79]; < 10%
CC(c1cccc(C(=O)NCC(=O)NCc2nc3ccccc3[nH]2)c1)c1c(O)c2ccccc2oc1=O (stereo not drawn) [Example 33]; < 10%
CCC(c1cccc(NC(=O)COc2cccc3ccccc23)c1)c1c(O)c2ccccc2oc1=O (stereo not drawn) [Example 41]; < 10%
CC(c1cccc(C(=O)NCC(=O)N2CCOCC2)c1)c1c(O)c2ccccc2oc1=O (stereo not drawn) [Example 32]; < 10%
CCC(c1ccccc1OC(C)=O)c1c(O)c2ccccc2oc1=O (stereo not drawn) [Example 73]; < 10%

The compound listed as C=CC(c1ccccc1)c1c(O)c2ccccc2oc1=O (stereo not drawn) [Example 74] has a reported inhibition at 1 µM of < 10%

The compound listed as CCCCNC(=O)c1cccc(C(C)c2c(O)c3ccccc3oc2=O)c1 (stereo not drawn) [Example 31] has a reported inhibition at 1 µM of < 10%

The compound listed as CCCC(c1ccc(CC)cc1)c1c(O)c2ccccc2oc1=O (stereo not drawn) [Example 19] has a reported inhibition at 1 µM of < 10%

The compound listed as CCC(c1ccccc1)c1c(O)c2c(oc1=O)CCCCC2 (stereo not drawn) [Example 110] has a reported inhibition at 1 µM of 16.9%

The compound listed as CCC(c1ccccc1)c1c(O)c2ccc(OC)cc2oc1=O (stereo not drawn) [Example 88] has a reported inhibition at 1 µM of 80%

The compound listed as CCC(c1ccc(Br)cc1)c1c(O)c2ccccc2oc1=O (stereo not drawn) [Example 91] has a reported inhibition at 1 µM of < 10%

The compound listed as CCC(c1cccc(NC(=O)CCc2ccccc2)c1)c1c(O)c2ccccc2oc1=O (stereo not drawn) [Example 25] has a reported inhibition at 1 µM of 11.4%

The compound listed as C=CCOc1ccc2c(O)c(C(CC)c3ccccc3)c(=O)oc2c1 (stereo not drawn) [Example 78] has a reported inhibition at 1 µM of < 10%

The compound listed as O=c1oc2ccccc2c(O)c1C(Cc1ccccc1)c1ccccc1 (stereo not drawn) [Example 13, 3-(1,2-Diphenylethyl)4-hydroxycoumarin] has a reported inhibition at 1 µM of < 10%

The compound listed as COc1ccc2c(O)c(C(C3CC3)C3CC3)c(=O)oc2c1 [Example 80] has a reported inhibition at 1 µM of < 10%

====

- SUBJECT_OF_TEST: HIV-1 protease (Human immunodeficiency virus type 1 group M subtype B, UniProt P04585)
- EXPERIMENT_SUMMARY: biochemical
- CONDITION_CONTEXT: read-out: HIV-1 Protease % Inhib, dose 3.300 uM
Parameter inhibition at 3.3 µM: see the listing below.

The cases that follow already have their inhibition at 3.3 µM on record.
N#Cc1ccccc1S(=O)(=O)Nc1cccc(C(c2c(O)c3c(oc2=O)CCCCCC3)C2CC2)c1 (stereo not shown) [Example 339]; 99.2%
O=C(CCn1ccc2ccccc21)Nc1cccc(C(c2c(O)c3ccccc3oc2=O)C2CC2)c1 (stereo not shown) [Example 168]; 74.9%
CCCCC(c1cccc(NS(=O)(=O)c2ccc(F)cc2)c1)c1c(O)c2c(oc1=O)CCCCCC2 (stereo not shown) [Example 422]; 103%

We next turn to a different compound, shown below.
The compound listed as CCCC(c1cccc(NS(=O)(=O)c2ccc(C#N)cc2)c1)c1c(O)c2c(oc1=O)CCCCCC2 (stereo not shown) [Example 378] has a reported inhibition at 3.3 µM of 118%
